Where these numbers come from: patent US11344510B2

Test: RLM stability (High Activity)
Assay type: in vitro ADME, Sprague Dawley rats
Settings: male, Sprague Dawley, rat, liver microsomes, pH 7.4, Condition 2 (High Activity), 1 μM, 1.0 mg protein/mL
Some compounds, each annotated with its measured microsomal CLint at 1 μM.
Express it in µL/min/mg; write the number only.

Worked examples, 2 compounds total:
> print(dat)
                                   compound  endpoint.value
1  N[C@@]1(c2ccccc2)CCCCC1=O [Compound 11R, (R)-2-amino-2-phenyl-cyclohexan-1-one]               7
2  [2H]C([2H])([2H])N[C@@]1(c2ccccc2)CCCCC1=O [Compound 88R]              18

Ask: # get_value(readout='microsomal CLint at 1 μM', item= O=C1CCCC[C@]1(c1ccccc1)N1CCC1 [Compound 84R] )
Result: 32

----------
Test: HLM stability (Low Activity, Alternative Method)
Type: in vitro ADME
Conditions: both sexes, human, liver microsomes, pH 7.4, Condition 1 column, values marked *: Low Activity, 0.50 mg protein/mL
Assay readout: microsomal CLint at 1 μM

> print(dat)
                                   compound   endpoint.value
1  CC1CCN1C1(c2ccccc2)CCCCC1=O (centres unmarked) [Compound 128mix]   15.9 µL/min/mg
2  NC1(c2ccc(F)cc2)CCCCC1=O (racemic) [Compound 117rac]  < 9.6 µL/min/mg

Ask: Entry O=C1CCCC[C@@]1(c1ccccc1)N1CCCC1 [Compound 27S] : reported microsomal CLint at 1 μM = ?
Result: < 9.6 µL/min/mg

Ask: Please look up its microsomal CLint at 1 μM: CC(C)N[C@]1(c2ccccc2)CCCCC1=O [Compound 28S]
Result: 18.1 µL/min/mg

Ask: Look up microsomal CLint at 1 μM: O=C1CCCC[C@@]1(c1ccccc1)N1CCOCC1 [Compound 31S]
Result: 22.7 µL/min/mg

----------
Experiment: HLM stability (Low Activity, Alternative Method)
Assay type: in vitro ADME
Settings: both sexes, human, liver microsomes, pH 7.4, Condition 1 column, values marked *: Low Activity, 0.50 mg protein/mL
Each record here notes measured half-life at 1 μM.
The answer is to be given in min; state only the numeric part.

Previously resolved entries follow.
> print(dat)
                                   compound  readout.units  endpoint.value
1  CC1CCN1C1(c2ccccc2)CCCCC1=O (stereo not drawn) [Compound 128mix]            min              87
2   CC1CN(C2(c3ccccc3)CCCCC2=O)C1 (racemic)            min             134
3  CC(C)N[C@@]1(c2ccccc2)CCCCC1=O [Compound 28R]            min            69.4
4  O=C1CCCC[C@@]1(c1ccccc1)N1CCOCC1 [Compound 31S]            min              61

Ask: Which half-life at 1 μM is reported for this compound? CCN(CC)[C@@]1(c2ccccc2)CCCCC1=O [Compound 25R]
Result: 49

----------
Test: Oral bioavailability in mice, Method A
Type: in vivo
Details: male, mouse, plasma, CD-1 mice, 10 mg/kg iv, read-out: t1/2 (iv)
Where a name gives a salt, the structure may show the parent alone.
Assay readout: half-life

> print(dat)
                                   compound  endpoint.value
1  CCNC1(c2cccc(OC)c2)CCCCC1=O (racemic) [Compound 2rac]        17.9 min
2  CN[C@]1(c2ccccc2)CCCCC1=O [Compound 14S]         142 min
3  CNC1(c2ccccc2OC)CCCCC1=O (racemic) [Compound 4rac]        20.6 min
4  CNC1(c2ccccc2F)CCCCC1=O (racemic) [Compound 35rac]        15.1 min
5  CN[C@@]1(c2ccccc2)CCCCC1=O [Compound 14R]        70.5 min

Pending compound:
Ask: Please give the measured half-life for this compound: CNC1(c2ccccc2)CCCCC1=O (racemic) [Compound 14rac, hydrochloride]
Result: 33.7 min

----------
Experiment: Exposure after intraperitoneal administration in mice
Type: in vivo
Settings: male, mouse; brain, CD-1 mice, 10 mg/kg ip
Assay readout: Cmax (ng/mL)
Note: unit ng/mL is implicit; provide only the numeric part.

Ask: What Cmax value was documented for this compound, CNC1(c2ccccc2Cl)CCCCC1=O (racemic) [rac-ketamine, racemic ketamine, reference compound] ?
Result: 2250

----------
Experiment: HLM stability (High Activity)
Assay type: in vitro ADME
Conditions: both sexes, human, liver microsomes, pH 7.4, Condition 2 (High Activity), 1.0 mg protein/mL
Structures can show the parent of a compound that is named as a salt.
Assay readout: microsomal CLint at 1 μM (µL/min/mg)
A number alone suffices; assume µL/min/mg.

Consider the following illustrative entries.
> print(dat)
                                   compound  endpoint.value
1         CCNC1(c2ccccc2)CCCCC1=O (racemic)               2
2  O=C1CCCC[C@@]1(c1ccccc1)N1CCC1 [Compound 84S]               4
3  CN[C@]1(c2ccccc2C)CCCCC1=O [Compound 38S]               6
4      CNC1(c2cccc(OC)c2)CCCCC1=O (racemic)               5
5     CCNC1(c2cccc(OC)c2)CCCCC1=O (racemic)               3
6  CNC1(c2ccccc2)CCCCC1=O (racemic) [Compound 14rac, hydrochloride]               2
7  [2H]C([2H])([2H])N[C@@]1(c2ccccc2)CCCCC1=O [Compound 88R]               4
8  O=C1CCCC[C@]1(c1ccccc1)N1CCC1 [Compound 84R]               4

Ask: Consider the compound [2H]C([2H])([2H])N[C@]1(c2ccccc2)CCCCC1=O [Compound 88S] and give its measured microsomal CLint at 1 μM.
Result: 4

Ask: Return reported microsomal CLint at 1 μM; argument: O=C1CCCC[C@@]1(NCCF)c1ccccc1 [Compound 86R]
Result: 12

----------
Test: HLM stability (Low Activity)
Assay type: in vitro ADME
Conditions: both sexes, human, liver microsomes, pH 7.4, Condition 1 (Low Activity), 0.42 mg protein/mL
Structures can show the parent of a compound that is named as a salt.
Assay readout: microsomal CLint at 2 μM (µL/min/mg)
// units = µL/min/mg; emit number, no label

> print(dat)
                            compound  endpoint.value
1  CCNC1(c2ccccc2)CCCCC1=O (racemic)              13

Ask: Quick one: microsomal CLint at 2 μM for CNC1(c2ccccc2)CCCCC1=O (racemic) [Compound 14rac, hydrochloride] ?
Result: 5

Ask: # lookup: microsomal CLint at 2 μM of CNC1(c2ccccc2Cl)CCCCC1=O (racemic) [rac-ketamine, racemic ketamine, reference compound]
Result: 21

Ask: Using the record for NC1(c2ccccc2)CCCCC1=O (racemic) , report its microsomal CLint at 2 μM.
Result: 2

Ask: Consider the compound shown here: CNC1(c2ccccc2OC)CCCCC1=O (racemic) What is its recorded microsomal CLint at 2 μM?
Result: 1

Ask: Dear colleague, I am looking for the recorded microsomal CLint at 2 μM of the following compound: CNC1(c2cccc(OC)c2)CCCCC1=O (racemic)
Result: 19

Ask: Entry under review: CNC1(c2ccccc2F)CCCCC1=O (racemic) . Reported microsomal CLint at 2 μM?
Result: 10

Ask: // returns reported microsomal CLint at 2 μM for input NC1(c2ccccc2Cl)CCCCC1=O (racemic)
Result: 7

Ask: Return reported microsomal CLint at 2 μM; argument: CCNC1(c2cccc(OC)c2)CCCCC1=O (racemic)
Result: 6

----------
Target: vesicular monoamine transporter 2 (VMAT2) (Homo sapiens, UniProt Q05940)
Sequence (Q05940 whole entry, species assumed): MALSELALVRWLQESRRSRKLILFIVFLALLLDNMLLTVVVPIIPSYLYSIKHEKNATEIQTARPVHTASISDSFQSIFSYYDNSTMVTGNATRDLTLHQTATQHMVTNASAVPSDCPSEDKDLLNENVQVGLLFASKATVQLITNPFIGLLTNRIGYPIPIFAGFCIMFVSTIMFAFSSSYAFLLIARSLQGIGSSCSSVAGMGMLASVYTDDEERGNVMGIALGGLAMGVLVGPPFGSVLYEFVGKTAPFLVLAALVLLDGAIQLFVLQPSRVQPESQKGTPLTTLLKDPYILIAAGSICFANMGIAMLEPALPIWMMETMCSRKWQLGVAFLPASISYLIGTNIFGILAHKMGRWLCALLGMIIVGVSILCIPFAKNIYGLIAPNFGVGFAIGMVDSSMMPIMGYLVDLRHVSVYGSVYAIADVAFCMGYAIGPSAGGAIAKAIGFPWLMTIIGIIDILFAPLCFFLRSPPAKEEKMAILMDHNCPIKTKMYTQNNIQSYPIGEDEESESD
Assay: Fluorescent substrate uptake inhibition, VMAT2
Quick reference for IC50 among some compounds

Look over these answered cases.
> print(dat)
                                   compound  assay.readout  endpoint.value
1  O=C1CCCCC1(c1ccccc1)N1CCCC1 (racemic) [Compound 27rac]           IC50         11.2 µM
2  O=C1CCCC[C@@]1(c1ccccc1)N1CCC1 [Compound 84S]           IC50        > 100 µM
3  O=C1CCCC[C@]1(c1ccccc1)N1CCC1 [Compound 84R]           IC50         98.2 µM
4  O=C1CCCC[C@]1(c1ccccc1)N1CCCC1 [Compound 27R]           IC50         18.1 µM

Now for the compound whose IC50 we want.
Ask: What is its IC50 for vesicular monoamine transporter 2 (VMAT2) (Homo sapiens, UniProt Q05940)? Entry: O=C1CCCC[C@@]1(c1ccccc1)N1CCCC1 [Compound 27S]
Result: 19.3 µM
